# study system: Chicken egg yolk immunoglobulin (IgY) (chicken)
# assay details: SPR
pKd: −log10 of the molar value. Positions of bridges follow the written chain, without caps; N, C: chain ends. Primed or numbered codes have the meaning given here. *: point of attachment. PEG4′ = PEG4 spacer between biotin and the N-terminus; Biotin = O=C1N[C@H]2[C@H](CS[C@H]2CCCCC(=O)*)N1
Examples of binders with documented pKd follow.
reported endpoint: pKd

binder | assay value
{Biotin-PEG4′}-RSVCVWTAVTGWDCRND-NH2 (disulfide 4-14 (inferred)) [Y5‐55 synthetic peptide (biotinylated IgY‐binding peptide)] | 5.36
{Biotin-PEG4′}-GVKCTWSSIVDWVCVDM-NH2 (disulfide 4-14 (inferred)) [Y4‐4 synthetic peptide (biotinylated IgY‐binding peptide)] | 5.14

Just for reference, paper PMC5637892 is where these values come from.
